Reported Ki against Alpha-1D adrenergic receptor (Homo sapiens, UniProt P25100), gathered from multiple publications, appears below.
Sequence (P25100 whole entry): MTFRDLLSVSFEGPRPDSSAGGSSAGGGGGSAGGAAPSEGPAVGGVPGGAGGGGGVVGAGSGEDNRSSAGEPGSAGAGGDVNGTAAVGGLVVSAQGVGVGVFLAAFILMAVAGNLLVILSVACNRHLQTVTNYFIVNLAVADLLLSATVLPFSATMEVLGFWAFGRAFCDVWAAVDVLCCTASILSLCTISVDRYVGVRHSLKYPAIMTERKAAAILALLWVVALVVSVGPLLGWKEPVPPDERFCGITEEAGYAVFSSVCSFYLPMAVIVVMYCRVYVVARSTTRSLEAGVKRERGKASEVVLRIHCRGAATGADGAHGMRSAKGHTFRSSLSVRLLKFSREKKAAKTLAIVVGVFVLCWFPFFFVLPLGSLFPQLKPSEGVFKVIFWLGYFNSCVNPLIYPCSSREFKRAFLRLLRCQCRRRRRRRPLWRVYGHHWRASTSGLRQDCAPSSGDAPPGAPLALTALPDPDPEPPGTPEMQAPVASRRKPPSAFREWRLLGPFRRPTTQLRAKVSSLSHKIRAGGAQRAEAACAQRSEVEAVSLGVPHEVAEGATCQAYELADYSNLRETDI
Answers are plain numbers, in nM.

// below: answered compounds
Compound	Target desc	Ki [nM]
Cc1noc(C)c1S(=O)(=O)Nc1ccc2c(c1)C(=O)CC1(CCN(CCc3cccc4ccccc34)CC1)O2	Alpha-1D adrenergic receptor (Homo sapiens, UniProt P25100)	18
COc1cc2nc(N3CCC[C@@H](N)C3)nc(N)c2cc1OC	Alpha-1D adrenergic receptor (Homo sapiens, UniProt P25100)	102
COc1ccccc1N1CCN(CCn2c(=O)[nH]c3c(sc4ccc(NC(=O)CCC(=O)NCc5ccccc5)cc43)c2=O)CC1	Alpha-1D adrenergic receptor (Homo sapiens, UniProt P25100)	0.372
COc1ccccc1N1CCN(CCNc2cc(-c3ccccc3)nn(C)c2=O)CC1	Alpha-1D adrenergic receptor (Homo sapiens, UniProt P25100)	11.8
O=C1CC2(CCCC2)CC(=O)N1CCN1CCN(c2cc(Cl)ccc2Cl)CC1	Alpha-1D adrenergic receptor (Homo sapiens, UniProt P25100)	0.13

State the recorded Ki for every item in the following list.
1. CC(C)Oc1ccccc1N1CCN(CCNC(=O)CN2CCCCC2=O)CC1
2. Cl.Cl.Fc1ccc2c(C3CCN(CCCN4CCCCC4)CC3)c[nH]c2c1
3. CC(C)Oc1ccccc1N1CCN(Cc2cc(CN3CCCCC3=O)on2)CC1
4. COc1ccccc1OCCN(C)CCN1C(=O)CC2(CCCC2)CC1=O
5. CC(C)Oc1ccccc1N1CCN(C[C@H](O)CNC(=O)c2ccc3c(c2)C(=O)N(c2cccc(F)c2)C3=O)CC1
6. Cc1ccc(C2(c3ccc(C)cc3)CC(=O)N(CCCN3CCC(C#N)(c4ccccc4C)CC3)C2=O)cc1
7. O=S1(=O)CCC(NCCOc2cc(F)ccc2F)c2ccccc21 (stereo not given)

Ans:
[372, 22, 272, 18.2, 63, 1500, 17]
